Numbers sourced from patent US11186579B2.

target: IDO1 (Homo sapiens, UniProt P14902); construct: HeLa cells were treated with a test compound in the presence of IFNγ, which induces IDO1 expression; endogenous in cells; test: Cell-Based (HeLa) Assay for Measurement of IDO1 Inhibition; conditions: H1-HeLa cells, IDO1 induced with IFNγ, 48 hour incubation, kynurenine in supernatant (absorbance 480 nm); geometric mean of minimum four determinations
Sequence (P14902 whole entry): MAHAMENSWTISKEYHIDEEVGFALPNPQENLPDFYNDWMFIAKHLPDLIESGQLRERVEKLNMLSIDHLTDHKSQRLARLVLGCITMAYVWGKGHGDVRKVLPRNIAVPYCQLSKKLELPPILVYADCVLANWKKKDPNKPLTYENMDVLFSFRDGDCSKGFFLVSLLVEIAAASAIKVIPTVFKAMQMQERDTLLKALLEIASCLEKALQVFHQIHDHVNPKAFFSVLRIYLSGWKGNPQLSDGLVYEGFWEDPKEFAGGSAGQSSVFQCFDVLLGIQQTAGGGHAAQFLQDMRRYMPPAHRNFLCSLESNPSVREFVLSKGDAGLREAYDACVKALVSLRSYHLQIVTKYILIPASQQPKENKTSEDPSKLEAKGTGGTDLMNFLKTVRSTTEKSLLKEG
recorded metric: EC50 (nM)

> print(dat)
                                   molecule  scale.unit  numeric.result
1  O=C(Nc1ccc(F)cc1)c1cc(-c2cccn3c(-c4cccc(F)c4F)cnc23)cnc1C(F)(F)F [Example 20]          nM              89
2  O=C(Nc1ccc(F)cc1)c1cc(-c2cccn3c(-c4ccncc4)cnc23)ccc1C(F)(F)F [Example 6]          nM            1420

P: O=C(Nc1ccc(F)cc1)c1cc(-c2cccn3c(-c4cccnc4)c(CO)nc23)ccc1Cl [Example 15]
Q: O=C(Nc1ccc(F)cc1)c1nc(-c2cccn3c(-c4cccc(F)c4F)cnc23)ccc1C(F)(F)F [Example 24]
[in] Pick the one with the larger EC50: P vs Q // output: label of the selected item
[out] P
